- Tested on: MOLT-4 leukemia
- assay_info: NCI tumour cell line growth inhibition, 48 h
property_name: GI50

# compound_structure, tested_target, result
data = [
    ("c1csc(-c2[nH]nc3c2CCc2ccccc2-3)c1", "MOLT-4 leukemia", "14.9 µM"),
    ("CC(C)=NO.CC(C)=NO.CC(C)=NO.CC(C)=NO.[Ti]", "MOLT-4 leukemia", "> 100 µM"),
    ("O=C(/C=C/N1CCN(c2cccc(Cl)c2)CC1)c1ccc(Cl)cc1", "MOLT-4 leukemia", "33.5 µM"),
    ("CS(=O)(=O)Nc1ccc(Nc2c3ccccc3nc3cc(Cl)ccc23)cc1", "MOLT-4 leukemia", "0.214 µM"),
    ("COc1ccc(-c2ccc(/C=N/n3c(COc4ccc(Cl)c(C)c4)nn(CN4CCOCC4)c3=S)o2)c([N+](=O)[O-])c1", "MOLT-4 leukemia", "21.8 µM"),
    ("CN(C)C(=O)c1cc2cnc(Nc3ccc(N4CCNCC4)cn3)nc2n1C1CCCC1", "MOLT-4 leukemia", "1.8 µM"),
    ("COc1cc2c(cc1OCCCN1CCN(CCCn3c4ccccc4c4ccccc43)CC1)N=C[C@@H]1CCCN1C2=O", "MOLT-4 leukemia", "0.044 µM"),
    ("O=C(Nc1cccc(C(F)(F)F)c1)Nc1ccc(OCc2nnc(-c3ccccc3)o2)c(F)c1", "MOLT-4 leukemia", "3.59 µM"),
    ("C/C(=N\\NC(=O)c1ccncc1)c1ccccc1O", "MOLT-4 leukemia", "2.35 µM"),
    ("O=C1COc2c(CCNCCN(C(=O)CCNCCc3ccc(Cl)c(Cl)c3)C3CCCCC3)ccc(O)c2N1", "MOLT-4 leukemia", "15.8 µM"),
    ("O=C(Nc1cccc(C(F)(F)F)c1)Nc1cc(S(=O)(=O)NC2CC2)ccc1-c1ccsc1", "MOLT-4 leukemia", "3.02 µM"),
    ("Brc1ccc2c(c1)-c1ccccc1C1=NCCN12", "MOLT-4 leukemia", "0.419 µM"),
    ("O=C(NCc1cccnc1)c1ccc([N+](=O)[O-])o1", "MOLT-4 leukemia", "> 20 µM"),
    ("CCn1c(SC)nnc1-c1cc2c([nH]c3ccccc32)c(-c2cccc(O)c2)n1", "MOLT-4 leukemia", "2.05 µM"),
    ("Cc1cccc(Cc2cnc(NC(=O)CCCOc3ccc(Cl)cc3)s2)c1", "MOLT-4 leukemia", "5.72 µM"),
    ("Cn1c(=O)c(-c2c(Cl)cccc2Cl)cc2cnc(Nc3ccc(N4CCOCC4)cc3)nc21", "MOLT-4 leukemia", "< 0.0476 µM"),
]
